B1: SOAT1 (parent)
chain: VYYIFERLCAPLFRNIKQEPFSAR

Variants of: B1
testSummary: protein stability index of a GFP-peptide fusion (GPS, HEK-293T) (PSI 1-6); higher = more stable;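 note: lentivirally expressed fusions sorted by FACS into six bins by GFP to DsRed ratio, PSI derived from sequencing read proportions per bin multiplied by bin number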
conditionSet: c terminus: a fixed tail appended
Outcome: y for protein stability index of at least 2; n for anything lower.

C9N = n
Y3C = y
P11Y = n

Textbook exercise: given the entry E6K , state whether its protein stability index is greater than or equal to 2.
y

Next entry: I4D
n

Next entry: P20M
y

Next entry: N15G
n

Next entry: I16W
y

Next entry: N15Y
n

Next entry: E19D
y

Next entry: I16M
n

Next entry: R14E
n

Next entry: C9G
y

Next entry: F21S
y

Next entry: C9T
y

Next entry: R14P
y
